B1: library; numbered along this chain (parent)
chain: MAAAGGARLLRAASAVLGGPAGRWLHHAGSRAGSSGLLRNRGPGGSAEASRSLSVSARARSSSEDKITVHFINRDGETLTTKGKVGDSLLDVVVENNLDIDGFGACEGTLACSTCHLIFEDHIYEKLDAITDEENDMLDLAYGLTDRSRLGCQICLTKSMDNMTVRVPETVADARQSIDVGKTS

Variants of: B1
method-notes: scaled log2 fold change in cell abundance, elesclomol vs control (0 = silent mean, 1 = nonsense mean) (scaled log2 ratio); higher = higher viability under elesclomol (loss of FDX1 cuproptosis function);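 note: variant abundance is its share of total variant reads in each endpoint sample, from next-generation sequencing of the integrated ORF PCR-amplified out of genomic DNA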
conditions-used: with ABC1 FDX1 KO; elesclomol 5 nM; glucose 10 mM; 14 days
measured-quantity: scaled log2 fold change
Give bare numbers.

>  <variant-annotation>
S52V

>  <scaled log2 fold change>
-0.785

$$$$

For each of the variants below, state scaled log2 fold change.
1. G102F
2. R51H
3. G143V

1. -0.00949
2. -0.0671
3. 0.0102

Hey, quick one: what's scaled log2 fold change for each of these?
1. S34M
2. G108P
3. V69K
4. S63Y

1. -0.108
2. 1.09
3. 1.22
4. 0.0691

Respectfully, I request scaled log2 fold change for each entry included below.
1. S46N
2. L110Y
3. D161C
4. E95G
5. G76L
6. G45A
7. R147E

0.338
0.609
0.35
-0.0448
0.0165
0.315
0.159

Source: the supplement of paper PMC12855868
